- STUDY TARGET: rat brain cortical membranes ([35S]-TBPS binding, GABA receptor complex)
- ASSAY DETAILS: Steroid inhibition of [35S]-TBPS binding
- MEASUREMENT PARAMETERS: 3 nM [35S]-TBPS, in the presence of 5 mM GABA
Items are presented alongside their recorded IC50.

smiles_repr=C[C@@]1(O)CC[C@]2(C)C3=CC[C@]4(C)[C@@H](C(=O)Cn5nccn5)CC[C@H]4[C@@H]3CC[C@@H]2C1 study_target="rat brain cortical membranes ([35S]-TBPS binding, GABA receptor complex)" assay_value="0.01 to 0.1 µM"
smiles_repr=Cc1nnnn1CC(=O)[C@H]1CC[C@H]2[C@@H]3CC[C@H]4C[C@](C)(O)CC[C@]4(C)C3=CC[C@]12C study_target="rat brain cortical membranes ([35S]-TBPS binding, GABA receptor complex)" assay_value="0.1 to 1 µM"
smiles_repr=C[C@@]1(O)CC[C@]2(C)C3=CC[C@]4(C)[C@@H](C(=O)Cn5cc(C#N)cn5)CC[C@H]4[C@@H]3CC[C@H]2C1 study_target="rat brain cortical membranes ([35S]-TBPS binding, GABA receptor complex)" assay_value="0.01 to 0.1 µM"
smiles_repr=C[C@@]1(O)CC[C@]2(C)C3=CC[C@]4(C)[C@H](C(=O)Cn5cc(C#N)cn5)CC[C@H]4[C@@H]3CC[C@H]2C1 study_target="rat brain cortical membranes ([35S]-TBPS binding, GABA receptor complex)" assay_value="1 to 10 µM"

What measured IC50 goes with `Cc1nnn(CC(=O)[C@H]2CC[C@H]3[C@@H]4CC[C@@H]5C[C@](C)(O)CC[C@]5(C)C4=CC[C@]23C)n1` ?
0.01 to 0.1 µM

What measured IC50 goes with `Cc1nnnn1CC(=O)[C@H]1CC[C@H]2[C@@H]3CC[C@@H]4C[C@](C)(O)CC[C@]4(C)C3=CC[C@]12C` ?
0.1 to 1 µM

What measured IC50 goes with `C[C@@]1(O)CC[C@]2(C)C3=CC[C@]4(C)[C@@H](C(=O)Cn5ccnn5)CC[C@H]4[C@@H]3CC[C@H]2C1` ?
0.1 to 1 µM

What measured IC50 goes with `CC(=O)[C@H]1CC[C@H]2[C@@H]3CC[C@@H]4C[C@](C)(O)CC[C@]4(C)C3=CC[C@]12C` ?
0.01 to 0.1 µM

====

- STUDY TARGET: rat brain cortical membranes ([35S]-TBPS binding, GABA receptor complex)
- ASSAY DETAILS: Steroid inhibition of [35S]-TBPS binding
- MEASUREMENT PARAMETERS: 3 nM [35S]-TBPS, in the presence of 5 mM GABA
READOUT: IC50

Guide cases for IC50, answers given:
smiles_repr=CCOC[C@@]1(O)CC[C@]2(C)C3=CC[C@]4(C)[C@@H](C(C)=O)CC[C@H]4[C@@H]3CC[C@H]2C1 study_target="rat brain cortical membranes ([35S]-TBPS binding, GABA receptor complex)" readout=IC50 assay_value="1000 to 10000 nM"
smiles_repr=C[C@@]1(O)CC[C@]2(C)C3=CC[C@]4(C)[C@@H](C(=O)Cn5cc(C#N)cn5)CC[C@H]4[C@@H]3CC[C@@H]2C1 study_target="rat brain cortical membranes ([35S]-TBPS binding, GABA receptor complex)" readout=IC50 assay_value="10 to 100 nM"

What measured IC50 goes with `C[C@@]1(O)CC[C@]2(C)C3=CC[C@]4(C)[C@@H](C(=O)Cn5ccnn5)CC[C@H]4[C@@H]3CC[C@@H]2C1` ?
100 to 1000 nM

The reported numbers originate from patent US20250136638A1.
